Please provide measured CC50 at 72 h for the entries that follow.
Assay: Cytotoxicity in HFF-1 cells (MTS tetrazolium assay)
Format: cell-based
Conditions: human, HFF-1 fibroblasts, mean ± SD of two independent assays
Numbers only, in µM.

Field: example entries. Status: answers known.
COc1ccc(NC(=O)COC(=O)[C@H](CC(C)C)N2C(=O)C=C(C)C2=O)cc1Cl [10e] ... 4.8
COc1ccc(NC(=O)COC(=O)[C@H](CC(C)C)N2CCN(C(=O)OC(C)(C)C)CC2)cc1Cl [10n] ... 32
COc1ccc(NC(=O)COC(=O)[C@H](CC(C)C)N2C(=O)C=CC2=O)cc1Cl [10c] ... 12

Noted for COc1ccc(NC(=O)COC(=O)[C@H](CC(C)C)N2CCNCC2)cc1Cl.Cl [10o] : its CC50 at 72 h reads 32
